- System: murine Th17 cell differentiation
- RUN_DESCRIPTION: In vitro mouse Th17 cell differentiation
- Assay type: cell-based
- CONDITION_DESCRIPTION: wild type; melatonin 2 ng/ml, agomelatine 20 ng/ml, ramelteon 10 ng/ml, CGP 52608 20 ng/ml
- Protocol: For intracellular cytokine staining, cells were stimulated for 4 h at 37° C. with phorbol 12-myristate 13-acetate (50 ng/ml; Sigma), ionomycin (1 μg/ml; Sigma) and monensin (GolgiStop; 1 μg/ml; BD Biosciences). […] Data were collected with a LSR II or FACSAria (BD Biosciences), then were analyzed with FlowJo software (Treestar). […] Secreted cytokines were measured in tissue culture supernatants after 72-96 hs by enzyme-linked immunosorbent assay as previously described (Farez et al., 2009).
READOUT_LABEL: differentiation of Th17 cells (rorc, IL-17, IL-23 receptor)

STRUCTURE_AS_SMILES | REPORTED_RESULT
COc1ccc2cccc(CCNC(C)=O)c2c1 | suppressed
CCC(=O)NCC[C@@H]1CCc2ccc3c(c21)CCO3 | suppressed
